- Experimental System: LmDHFR (Leishmania major, UniProt P07382)
- Construct: The DNA fragment encoding LmDHFR was amplified by Phusion DNA polymerase; His6 (N); made in house; host or cells: E. coli BL21(DE3), vector pET 11D::LmDHFRHis
- Sequence (P07382 26-229 limits assumed): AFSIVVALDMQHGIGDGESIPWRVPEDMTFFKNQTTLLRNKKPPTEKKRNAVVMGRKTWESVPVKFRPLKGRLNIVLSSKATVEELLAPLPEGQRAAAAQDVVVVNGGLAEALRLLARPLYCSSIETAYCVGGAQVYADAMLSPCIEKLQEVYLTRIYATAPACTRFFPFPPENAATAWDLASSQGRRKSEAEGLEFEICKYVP
- Procedure Text: Spectrophotometric enzyme inhibition assay, recombinant LmDHFR
- Assay type: biochemical
- Description: Based on the in vitro assays against TbPTR1 and LmPTR1 performed in the previous works of our group, as well as the in silico results obtained from the current study, a total of 47 natural products were tested against the target enzymes. […] The TbDHFR concentration was measured to be 0.04 mg/mL and a specific activity of 38.1 U/mg was calculated. […] The saturating conditions for TbDHFR and LmDHFR were determined using the diagrams depicted in Figures S17 and S19 in the Supplementary Materials. […]
Please provide measured IC50 for the entries that follow.
Please answer in the form of a number followed by its unit of measurement.

Recorded IC50 for O=C(OC1Cc2c(O)cc(O)cc2OC1c1ccc(O)c(O)c1)c1cc(O)c(O)c(O)c1 (single isomer, unassigned; (-)) [Compound 3, (−)-catchin-3-gallate] , please?
0.6 µM

Same thing, different compound: O=C(/C=C/c1ccc(O[C@@H]2O[C@H](CO)[C@@H](O)[C@H](O)[C@H]2O)cc1)c1ccc(O)cc1O
46.2 µM

Same thing, different compound: COc1cc([C@@H]2Oc3cc(-c4oc5cc(O)cc(O)c5c(=O)c4O)ccc3O[C@H]2CO)ccc1O [Compound 4, 2,3-dehydrosilybin B]
2.6 µM

Same thing, different compound: CC(C)=CCc1c(O)cc2oc3cc(O)c(O)c(CC=C(C)C)c3c(=O)c2c1O
1.5 µM

====

- Experimental System: TbPTR1 (Trypanosoma brucei brucei)
- Construct: His6 (N); made in house; host or cells: E. coli BL21 (DE3), vector pET 15b::TbPTR1His (strain from the group of M. Paola Costi, Modena)
- Sequence (O76290 1-268): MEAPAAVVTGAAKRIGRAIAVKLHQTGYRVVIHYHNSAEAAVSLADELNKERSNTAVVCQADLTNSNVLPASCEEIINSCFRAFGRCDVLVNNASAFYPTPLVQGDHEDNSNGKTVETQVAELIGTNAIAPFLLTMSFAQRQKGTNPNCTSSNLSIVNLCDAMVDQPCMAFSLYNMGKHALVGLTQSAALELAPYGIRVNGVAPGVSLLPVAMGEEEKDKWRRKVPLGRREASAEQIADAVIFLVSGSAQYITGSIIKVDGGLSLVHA
- Procedure Text: Spectrophotometric enzyme inhibition assay, recombinant TbPTR1
- Type: biochemical
- Condition Description: read-out: IC50 TbPTR1
Please provide measured pIC50 for the entries that follow.
Recall that pIC50 is obtained by taking minus log10 of the concentration measured in molar.

Hi! What's the reported pIC50 for O=c1[nH]c(=O)n([C@@H]2O[C@H](CO)[C@@H](O)[C@H]2O)c2nc(-c3ccc(Cl)cc3)cnc12 [Compound 18] on TbPTR1 (Trypanosoma brucei brucei)?
4.23

Same thing, different molecule: O=C(/C=C/CCc1ccc(O)c(O)c1)CCc1ccc(O)c(O)c1 [Compound 17, dehydrohirsutanone]
5.08

Same thing, different molecule: CC(C)=CCc1c(O)ccc(C(=O)CCc2ccc(O)cc2)c1O [Compound 16]
4.19

Same thing, different molecule: COc1cc(/C=C/C(=O)CC(=O)/C=C/c2ccc(O)c(OC)c2)ccc1O [Compound 5, curcumin]
4.73

====

- Experimental System: LmPTR1 (Leishmania major, UniProt Q01782)
- Construct: His6 (N)
- Procedure Text: Spectrophotometric enzyme inhibition assay, recombinant LmPTR1
- Condition Description: read-out: EC50 LmPTR1 (footnote a)
Value Type: pEC50
Recall that pEC50 is obtained by taking minus log10 of the concentration measured in molar.

Recorded pEC50 for CCC(C)C(=O)c1c(O)c(C/C=C(\C)CCC=C(C)C)c(O)c2c([C@H](CC)OC(C)=O)cc(=O)oc12 (stereo partly shown) , please?
4.45

====

- Experimental System: LmPTR1 (Leishmania major)
- Construct: His6 (N); made in house; host or cells: E. coli BL21 (DE3), vector pET 15b::LmPTR1His (strain from the group of M. Paola Costi, Modena)
- Sequence (Q01782 1-288): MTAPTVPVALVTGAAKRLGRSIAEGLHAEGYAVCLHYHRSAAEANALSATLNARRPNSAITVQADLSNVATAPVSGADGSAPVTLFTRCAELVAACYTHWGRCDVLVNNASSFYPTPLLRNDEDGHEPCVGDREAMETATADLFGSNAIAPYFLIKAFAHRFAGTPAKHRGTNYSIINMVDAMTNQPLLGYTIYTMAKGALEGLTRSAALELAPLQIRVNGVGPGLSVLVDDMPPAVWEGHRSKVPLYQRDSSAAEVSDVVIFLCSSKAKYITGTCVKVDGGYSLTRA
- Procedure Text: Spectrophotometric enzyme inhibition assay, recombinant LmPTR1
- Type: biochemical
Value Type: pIC50
Recall that pIC50 is obtained by taking minus log10 of the concentration measured in molar.

Recorded pIC50 for CC(C)=CCc1c(O)cc2oc3cc(O)c(O)c(CC=C(C)C)c3c(=O)c2c1O [Compound 14, g-mangostin] , please?
5.00

====

- Experimental System: TbPTR1 (Trypanosoma brucei brucei)
- Construct: His6 (N); made in house; host or cells: E. coli BL21 (DE3), vector pET 15b::TbPTR1His (strain from the group of M. Paola Costi, Modena)
- Procedure Text: Spectrophotometric enzyme inhibition assay, recombinant TbPTR1
- Format: biochemical
- Condition Description: read-out: IC50 TbPTR1
Please provide measured IC50 for the entries that follow.
Enter your answer as a number in µM; do not include the unit.

Recorded IC50 for CCC/C=C\C/C=C\CCCCCCCc1cccc(O)c1C(=O)O [Compound 11] , please?
20.1

Same thing, different compound: C=CC/C=C\C/C=C\CCCCCCCc1cccc(O)c1C(=O)O [Compound 12]
21.7

Same thing, different compound: COc1ccc2c(c1)CCN=C2Cc1cc(OCc2ccccc2)c(OC)cc1C [Compound 19]
75.1

Same thing, different compound: CCC(C)C(=O)c1c(O)c(C/C=C(\C)CCC=C(C)C)c(O)c2c([C@H](CC)OC(C)=O)cc(=O)oc12 (stereo partly shown) [Compound 20, surangin B]
28.3
